// provenance: the supplement of paper PMC10567573

B1: FOXJ1 (parent)
chain: SAIYKWITDNFCYFRHADPTWQNS

Variants of: B1
METHOD: protein stability index of a GFP-peptide fusion (GPS, HEK-293T) (PSI 1-6); higher = more stable;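 note: lentivirally expressed fusions sorted by FACS into six bins by GFP to DsRed ratio, PSI derived from sequencing read proportions per bin multiplied by bin number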
SETUP_CONDITIONS: c terminus: a fixed tail appended
Rule: protein stability index of 3 or more gives satisfied; anything lower gives not satisfied.

[
  {
    "CHANGE": "Y13A",
    "CAT": "satisfied"
  },
  {
    "CHANGE": "I3H",
    "CAT": "not satisfied"
  },
  {
    "CHANGE": "A17K",
    "CAT": "not satisfied"
  },
  {
    "CHANGE": "W21N",
    "CAT": "satisfied"
  },
  {
    "CHANGE": "D18E",
    "CAT": "satisfied"
  },
  {
    "CHANGE": "K5H",
    "CAT": "satisfied"
  },
  {
    "CHANGE": "N23H",
    "CAT": "satisfied"
  },
  {
    "CHANGE": "D9T",
    "CAT": "satisfied"
  },
  {
    "CHANGE": "K5L",
    "CAT": "not satisfied"
  },
  {
    "CHANGE": "S24K",
    "CAT": "not satisfied"
  },
  {
    "CHANGE": "T20I",
    "CAT": "not satisfied"
  },
  {
    "CHANGE": "A2E",
    "CAT": "not satisfied"
  },
  {
    "CHANGE": "F11V",
    "CAT": "satisfied"
  },
  {
    "CHANGE": "Y13P",
    "CAT": "not satisfied"
  },
  {
    "CHANGE": "I7H",
    "CAT": "not satisfied"
  },
  {
    "CHANGE": "H16Q",
    "CAT": "satisfied"
  },
  {
    "CHANGE": "I3N",
    "CAT": "not satisfied"
  }
]
